Origin of values: patent US8114875B2

- measuredTarget: human dopamine D2L receptors (long isoform) (Homo sapiens, UniProt P14416)
- Construct: expressed in transfected cells; host or cells: HEK-293
- Sequence (P14416 whole entry, canonical isoform): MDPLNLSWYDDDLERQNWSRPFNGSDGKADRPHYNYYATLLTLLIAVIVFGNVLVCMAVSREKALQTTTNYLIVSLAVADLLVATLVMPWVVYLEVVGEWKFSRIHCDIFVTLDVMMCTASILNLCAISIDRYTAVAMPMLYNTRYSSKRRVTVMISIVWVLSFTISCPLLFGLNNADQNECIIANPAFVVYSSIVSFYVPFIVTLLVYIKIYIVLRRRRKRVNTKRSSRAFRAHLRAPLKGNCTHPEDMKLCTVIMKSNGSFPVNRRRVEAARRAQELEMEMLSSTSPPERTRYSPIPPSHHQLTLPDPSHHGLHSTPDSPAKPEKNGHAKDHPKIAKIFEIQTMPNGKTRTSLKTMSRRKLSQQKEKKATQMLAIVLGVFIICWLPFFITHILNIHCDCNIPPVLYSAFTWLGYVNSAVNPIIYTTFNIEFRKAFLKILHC
- methodDescription: Dopamine D2L receptor binding, displacement of [125I]-iodospiperone
- studyConditions: ratio of Ki values from D3 and D2L binding assays, HEK-293 membranes
- Method: The substance to be tested was dissolved either in methanol/Chremophor® (BASFAG) or in dimethyl sulfoxide and then diluted with water to the desired concentration. […] After incubation at 25° C. for 60 minutes, the mixtures were filtered under vacuum through Whatman GF/B glass fiber filters using a cell harvester. […] After addition of 4 ml of Ultima Gold® (Packard), the samples were shaken for one hour and then the radioactivity was counted in a beta counter (Packard, Tricarb 2000 or 2200CA). […]
propertyLabel: Selectivity D3 vs. D2L (footnote: Ki(D2L)/Ki(D3))

Here is how some molecules turned out for Selectivity D3 vs. D2L (footnote: Ki(D2L)/Ki(D3)).
Cc1cn(CCCCN2CCN(Cc3ccc(F)cc3Cl)CC2)c(=O)[nH]c1=O [Example 11] :: 48
Cc1cn(CCCCN2CCN(Cc3ccc(Cl)c(Cl)c3)CC2)c(=O)[nH]c1=O [Example 10] :: 51
O=c1[nH]c(=O)n(CCCCN2CCN(Cc3ccc(Cl)cc3Cl)CC2)cc1F [Example 5] :: 99
Cc1cn(CCCCN2CCN(Cc3ccc(Cl)cc3Cl)CC2)c(=O)[nH]c1=O [Example 1] :: 98

1 = O=c1nc(-c2ccccc2)ccn1CCCCN1CCN(Cc2ccc(Cl)cc2Cl)CC1 [Example 3]
2 = Cc1ccn(CCCCN2CCN(Cc3ccc(Cl)cc3Cl)CC2)c(=O)n1 [Example 4]
3 = O=c1ccn(CCCCN2CCN(Cc3ccc(Cl)cc3Cl)CC2)c(=O)[nH]1 [Example 2]
Rank order required: Selectivity D3 vs. D2L (footnote: Ki(D2L)/Ki(D3)), descending. Show the ranking through the labels, in the order asked for. 1, 3, 2
